- Test system: NCI-H23 lung
- test_details: NCI tumour cell line growth inhibition, 48 h
# reported TGI; entries follow

compound	TGI
COc1cc(/C=C2\CN(C)CC3=C2Nc2nc(SC)[nH]c(=O)c2C3c2cc(OC)c(OC)c(OC)c2)cc(OC)c1OC (centres undefined)	15.8 µM

TGI for N=C(N)SCc1cn2ccccc2n1 ?
> 100 µM

TGI for CCOC(=O)Cn1nnc2cc(Nc3c(C)[n+]([O-])c4cc(F)c(OCC)cc4[n+]3[O-])ccc21 ?
> 100 µM

TGI for O=C1/C(=C/c2ccc(Cl)cc2)CCCc2ccc(F)cc21 ?
> 100 µM

TGI for CNC(=O)Nc1ccc(-c2nc(N3CCOCC3)nc3c2cnn3C2CCOCC2)cc1 ?
> 100 µM

TGI for Cc1cc(N(CCNc2ccnc3cc(Cl)ccc23)Cc2ccc3c(c2)OCO3)nc(N2CCN(C)CC2)n1 ?
22.3 µM

TGI for CCCCN1C(=O)CC2[C@@H]3CCc4cc(OC)ccc4C3CC[C@]2(C)C1=O (some centres undefined) ?
> 10 µM

TGI for CC(=O)OCC(=O)O[C@@H]1[C@H]2[C@@H](OC(=O)c3ccccc3)[C@@H](C)C[C@]2(O)[C@H](OC(C)=O)[C@@]2(C)C[C@]1(OC(C)=O)C[C@H]1C(=O)C(C)(C)[C@@H](OC(C)=O)[C@@H]12 ?
> 25 µM

TGI for C[N+]1(CCN=C=NC2CCCCC2)CCOCC1 ?
> 100 µM
